# Experiment notes: Measurement of logP values by HPLC on reversed phase columns (EEC directive 79/831 Annex V.A8)
# Format: physicochemical
# Measurement conditions: pH 2.7, 0.1% formic acid in water / acetonitrile gradient, calibration with alkan-2-ones
Outcome: Condition met for Log P of at least 4; Condition not met for anything lower.

[Q] Decide: Log P of CC(OCC1CC1)C(=O)Nc1cccc(CON=C(c2ccccc2)c2nnnn2C)n1 (stereo not drawn) [Example 2] >= 4?
[A] Condition not met

[Q] Entry Cc1nnnn1C(=NOCc1cccc(NC(=O)CSC2CCCCC2)n1)c1ccccc1 [Example 79] please
[A] Condition met

[Q] Then C=CCSC(C)C(=O)Nc1nc(CON=C(c2ccccc2)c2nnnn2C)cs1 (stereo not drawn) [Example 75] ?
[A] Condition not met

[Q] Cn1nnnc1C(=NOCc1cccc(NC(=O)COCC2CCC2)n1)c1ccccc1 [Example 4] , same question.
[A] Condition not met

[Q] Now consider Cc1nnnn1C(=NOCc1csc(NC(=O)CCSCc2ccc(F)cc2)n1)c1ccccc1 [Example 115] .
[A] Condition not met

[Q] Please give the result for Cc1nnnn1C(=NOCc1csc(NC(=O)COCCC2CCCCC2)n1)c1ccccc1 [Example 40] too.
[A] Condition met

[Q] Same lookup for Cc1nnnn1C(=NOCc1cccc(NC(=O)CCOCc2ccccc2)n1)c1ccccc1 [Example 110] , please.
[A] Condition not met

[Q] Now give it for Cc1nnnn1C(=NOCc1csc(NC(=O)COCC2CCCCC2)n1)c1ccccc1 [Example 37] too.
[A] Condition met

[Q] Next record, please: Cn1nnnc1C(=NOCc1cccc(NC(=O)COCCC2CCCC2)n1)c1ccccc1 [Example 11]
[A] Condition met

[Q] Field entry: Cc1nnnn1C(=NOCc1cccc(NC(=O)C(C)OCC2CCC2)n1)c1ccccc1 (stereo not drawn) [Example 32]
[A] Condition met

[Q] Same question, CC(COCc1ccccc1)C(=O)Nc1nc(CON=C(c2ccccc2)c2nnnn2C)cs1 (stereo not drawn) [Example 104] this time
[A] Condition not met

[Q] Next compound: Cc1nnnn1C(=NOCc1csc(NC(=O)CCSCc2ccccc2)n1)c1ccccc1 [Example 116]
[A] Condition not met

[Q] Moving on to Cc1nnnn1C(=NOCc1cccc(NC(=O)COCC2CCCC2)n1)c1ccccc1 [Example 26]
[A] Condition met

[Q] Query Cn1nnnc1C(=NOCc1csc(NC(=O)CSC2CCCC2)n1)c1ccccc1 [Example 77] next
[A] Condition not met

[Q] Same read-out for Cn1nnnc1C(=NOCc1csc(NC(=O)COCC2CCC2)n1)c1ccccc1 [Example 15] ?
[A] Condition not met

[Q] And for Cc1nnnn1C(=NOCc1csc(NC(=O)CSCc2cccs2)n1)c1ccccc1 [Example 84] ?
[A] Condition not met

The reported measurements were obtained from patent US20140051575A1.
